MEASUREMENT DESCRIPTION: Test B: Cytotoxicity Assay
Type: cell-based
CONDITION PARAMETERS: human, uninfected MT-4 cells, same protocol as Test A
MEASUREMENT TYPE: CC50 at 5 days (µM)
Express the result in µM but write the number alone.

Worked cases, answers included:
COMPOUND	CC50 at 5 days / µM
Cn1nc(NS(C)(=O)=O)c2cccc(-c3ccc(C#CC(C)(C)O)nc3[C@H](Cc3cc(F)cc(F)c3)NC(=O)Cn3nc(C(F)(F)F)c4c3C3CC3CO4)c21 (some centres unmarked) [Compound 67I]	21.5
Cn1nc(NS(C)(=O)=O)c2c(Cl)ccc(-c3ccc(C#CC(C)(C)O)nc3[C@H](Cc3cc(F)cc(F)c3)NC(=O)Cn3nc4c(c3Cl)CCCC4)c21 [Compound 125D]	13.6
Cn1nc(NS(C)(=O)=O)c2c(Cl)ccc(-c3ccc(C#CC(C)(C)O)nc3[C@H](Cc3cc(F)cc(F)c3)NC(=O)Cc3c[nH]c4ccc(F)cc34)c21	23.1

Sample CC(C)(C)C#Cc1ccc(-c2ccc(Cl)n3c(N)nnc23)c([C@H](Cc2cc(F)cc(F)c2)NC(=O)Cn2nc(C(F)F)c3c2C(F)(F)[C@@H]2C[C@H]32)n1 [Compound 115C] ; CC50 at 5 days observed: 9.31

Sample Cc1c(-c2ccc(C#CC(C)(C)O)nc2[C@H](Cc2cc(F)cc(F)c2)NC(=O)Cn2nc(C(F)F)c3c2C(F)(F)[C@@H]2C[C@H]32)ccc2n[nH]c(=O)n12 ; CC50 at 5 days observed: 13.5
